STUDY SYSTEM: Stp1 (UniProt B3LFK1)
Sequence: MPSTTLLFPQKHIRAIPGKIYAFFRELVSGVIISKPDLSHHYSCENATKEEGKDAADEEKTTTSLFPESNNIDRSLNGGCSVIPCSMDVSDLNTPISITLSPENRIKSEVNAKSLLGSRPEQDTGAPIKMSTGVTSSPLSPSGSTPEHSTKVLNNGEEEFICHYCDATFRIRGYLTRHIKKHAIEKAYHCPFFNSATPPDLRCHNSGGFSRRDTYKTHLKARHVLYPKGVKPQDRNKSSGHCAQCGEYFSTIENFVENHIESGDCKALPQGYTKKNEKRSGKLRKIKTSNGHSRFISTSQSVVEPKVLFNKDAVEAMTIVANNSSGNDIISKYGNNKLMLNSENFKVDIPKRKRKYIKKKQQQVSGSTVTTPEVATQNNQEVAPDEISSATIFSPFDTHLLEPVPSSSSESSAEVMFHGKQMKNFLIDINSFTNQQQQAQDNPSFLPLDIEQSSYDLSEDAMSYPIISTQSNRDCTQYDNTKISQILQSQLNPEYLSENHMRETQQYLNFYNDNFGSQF
ASSAY EXPLANATION: PBM E-score (8-mer binding enrichment) (E-score (-0.5 to 0.5)); higher = stronger / more preferred TF binding
TEST SETTINGS: protein concentration: 200 nM; construct: GST-full length
The full ranking holds about 33,000 sequences; the median of “E-score (-0.5 to 0.5)” is about -0.016, and the highest 2% start at about 0.32. The sample as a whole holds a higher share of the highest values than the screen did.

SEQUENCE ENTRY | PBM E-score
TAGTGCAA | 0.0577
CACAAGCA | -0.0847
CACCGTCG | -0.114
ATACGGGC | -0.0186
ATAAATGG | 0.0779
AAGAGCCG | 0.336
AGCAATTA | 0.0484
CGGCATCC | 0.353
CTACGGCC | 0.126
ACGGTTAA | 0.0599
CGCCTCTC | 0.0325
ATTCTAAG | 0.126
AAAGGGAC | -0.055
GGTTTATA | 0.0512
GACGGCAA | 0.325
AATCGTAC | 0.12
ATACGGAA | 0.268
AGGCATCC | -0.0829
ATCGCGCG | 0.235
CGCCAACG | 0.0633
CAAGGCAA | 0.264
GACGCGCC | 0.348
AGACATTG | -0.194
TAACCCCA | -0.336
GACGGAAC | -0.0397
ATACAGAC | -0.0347
CGATAAAC | 0.0166
GCCGGCAA | 0.106
CGCGTCCG | -0.0671
AAAGGACC | 0.0732
AGTGGGGC | -0.231
TCGGCTCA | -0.0668
CTAACAGC | 0.0206
CGGTAAGA | 0.0116
CACGGTCC | -0.109
CGGCATAA | 0.358
CCCTATTC | -0.0984
CAGAGCCG | 0.338
GCAGGCAC | 0.0604
CAGAGCCA | -0.148
ACCGCCGC | 0.389
AGAATAAC | -0.00738
GCCGGCAC | 0.273
CCAACAAG | 0.00906
CGATAGAC | 0.00428
CAGCGGGA | -0.174
CCCTCAGG | -0.224
ATTTCGCG | 0.177
CTCGAAAG | -0.053
GAAGGCAC | 0.368
AGTTTATA | 0.153
GGGCATCA | 0.104
ACCGCCGA | 0.0744
GCCTCGAC | 0.0115
CTACGGTA | -0.146
AAAGGCAG | 0.172
ACCGCCAT | 0.0869
ATCTCCTC | -0.209
ATCGCGCA | -0.0273
ACCATCCG | -0.144
GCATGGCA | 0.375
GTTAAGAA | 0.0825
CGGCATAC | 0.27
CAAACTAG | -0.107
AACCTCTA | -0.104
GCGATCAA | -0.0307
CTTCAGAC | -0.00198
AGGCATCA | 0.215
CGATAGGC | 0.135
CACCTCAA | 0.0958
GAGATAGC | -0.111
ATACGGCC | 0.406
ACCGCCGG | -0.0408
CCTGGGCC | -0.181
AGGCATAG | 0.15
CCTGCTCC | 0.0227
AAAGGCAA | 0.263
